The reported numbers originate from patent US20250042994A1.

- MEASUREMENT_TARGET: T1, Human CD19-his protein (human, UniProt P15391 20-291)
- T1 construct: bought protein; also called human CD19 protein; recombinant human CD19-His; not shown: His tag
- T1 sequence (looked up): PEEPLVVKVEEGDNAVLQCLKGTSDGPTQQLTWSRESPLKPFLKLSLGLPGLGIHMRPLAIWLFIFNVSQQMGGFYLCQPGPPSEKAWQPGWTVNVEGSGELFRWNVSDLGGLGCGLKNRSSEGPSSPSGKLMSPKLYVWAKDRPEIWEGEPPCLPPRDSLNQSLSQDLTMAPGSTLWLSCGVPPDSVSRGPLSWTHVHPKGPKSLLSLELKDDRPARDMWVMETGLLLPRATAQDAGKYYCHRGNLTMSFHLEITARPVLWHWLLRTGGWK
- ASSAY_SUMMARY: ELISA, antibody at 0.01 nM
Label criterion met when OD450 is strictly below 0.1; at or above that, label criterion not met.

{"BINDER": "F3.133.14 (antibody, human IgG1, V domains shown, human-murine chimeric antibody, human IgG1) VH: QVQLQQPGAELVMPGASVKLSCKASGYTFTNYWMHWVKQRPGQGLEWIGEIDPSDYYANYNQKFKGKATLTVDKSSSTAYMQLSSLTSEDSAVYYCARSHYYANSYNYWGQGTTLTVSS VL: EIELTQSPTTMAASPGEKITITCSASSSISSDYLHWYQQKPGFSPKLLIYRTSNLASGLPARFSGSGSGTSYSLTIGTMEAEDVATYYCQQGSSVPRMLTFGAGTKLELK", "CLASS_NAME": "criterion not met"}
{"BINDER": "F3.5.1 (antibody, human IgG1, V domains shown, human-murine chimeric antibody, human IgG1) VH: QAQLQQSGPELVKPGASVKISCKASGYAFSGSWMNWVQQRPGKGLEWIGRIYPGDGDTYYNGKFKDKAILTADKSSSTAYMQLSSLTSEDSAVYFCAQLRYRYVMDYWGQGTSVTVSS VL: DIVLTQSPASLAVSLGQRATISCRASESVSIHGSHLMHWYQQKPGQPPRLLIYAASNLESGVPARFSGSGSETDFTLNIHPVEEEDAATYFCQQGIKDPYTFGGGTKLEIK", "CLASS_NAME": "criterion not met"}
{"BINDER": "F3.81.2 (antibody, human IgG1, V domains shown, human-murine chimeric antibody, human IgG1) VH: QVQLQQPGAELVMPGASVKLSCKASAYTFTNYWMHWVKQRPGHGLEWIGEIDPSDSYTDYNQNFKAKATLTVDKSSSTAYMQLSSLTSEDSAVYYCARLMGRYFDVWGTGTTVTVSS VL: DIVMTQSHKFMSTSVGDRVSITCKASQDVSAAVAWYQQKPGQSPKLLINSASYRYTGVPDRFTGSGSGTDFTFTISSVQAEDLAVYYCQQHYSTPLTFGAGTKLELR", "CLASS_NAME": "criterion met"}
{"BINDER": "F5.7.1 (antibody, human IgG1, V domains shown, human-murine chimeric antibody, human IgG1) VH: QVTLKESGPGILQPSQTLSLTCSFSGFSLTTFGMGVGWIRQPSGKGLEWLTHIWWDDDKYYNPALKSRLTISKDTSKNQVFLRIANVDTADTATYYCARVITTGVPYFDYWGQGTTLTVSS VL: ENVLTQSPAIMSASPGEKVTMTCRASSSVSSSYLYWYQQKSGASPKLWISSTSNLASGVPARFSGSGSGTSYSLTINSVEAEDAATYYCQQYSGYPWTFGGGTKLEIK", "CLASS_NAME": "criterion not met"}
{"BINDER": "F5.8.6 (antibody, human IgG1, V domains shown, human-murine chimeric antibody, human IgG1) VH: QVQLHQPGAELVMPGASVTLSCKASGYTFTSYWMHWVKQRPGQGLEWIGEIDPSDSYTTYDQKFKGKATLTVDKFSSTAYMQFSSLTSEDSAVYYCARLTGNHLDYWGQGTTLTVSS VL: DIVMTQSHKFMSSSVGDRVSITCKASQDVSPAVAWYQQKPGQSPKLLIYSTSYRNTGVPDRFTGSGSGTDFTFTISSVQAEDLAVYYCQQHYSIPLTFGAGTKLELK", "CLASS_NAME": "criterion met"}
{"BINDER": "F5.3.6 (antibody, human IgG1, V domains shown, human-murine chimeric antibody, human IgG1) VH: DVQLQESGPGLVKPSQSQSLTCSVTGYSITSGYYWNWIRQFPGNKLEWMGYISYDGSNNYNPSLKNRISITRDTSKNQFFLKLNSVTTEDTVTYYCARAPLTGDRYWYFDVWGTGTTVTVSS VL: DIVLTQSPASLAVSLGQRATISCRASQSVSTSSYSYMHWYQQKPGQTPKLLIKYASNLKSGVPARFSGSGSGTDFTLNIHPVEEEDTATYYCQHSWEIPPTFGGGTKLEIK", "CLASS_NAME": "criterion met"}
{"BINDER": "F4.41.1 (antibody, human IgG1, V domains shown, human-murine chimeric antibody, human IgG1) VH: QVQLQQSGAELVRPGTSVKVSCKASGYAFTNYLIEWVKQRPGQGLEWIGVINPGSGDTLYNEKFKGKATLTADKSSTTAYMQLSGLTSDVSAIYFCARSPPITTIVADYFDYWGQGTTLTVSS VL: DIQMTQTTSSLSASLGDRVTISCRASQDISNYLNWYQQKPDGTVKLLIYYTSRLHSGVPSRFSGSGSGADYSLTISNLEQEDIATYFCQQGKTLPYTFGGGTKLEIK", "CLASS_NAME": "criterion met"}
